System: L1210 leukemia ip in BDF1 mice, survival T/C
Experiment: NCI In Vivo Anticancer Drug Screen. Data for tumor model L1210 Leukemia (intraperitoneal) in B6D2F1 (BDF1) mice
Details: endpoint: mean survival time; dose: 400.0 mg/kg/injection; schedule: Q04DX003 (ip); vehicle: Klucel (hydroxypropylcellulose) (HPC); higher = longer survival
Inconclusive results and toxic doses are left out.
test-readout: T/C

Problem: GET /values?readout=T/C&item= O=C(O)C1C2CCC3C(C(=O)O)C3C21 (centres undefined)
Solution: 98 % of control

Problem: Give its T/C value. Item: `O=C(O)C(SSC(C(=O)O)(c1ccccc1)c1ccccc1)(c1ccccc1)c1ccccc1`
Solution: 88 % of control

Problem: # T/C lookup, item `N#C/C(=C\c1ccccc1)C(=O)Nc1ccccc1`
Solution: 92 % of control

Problem: Look at this molecule and give its reported T/C. CCOC(=O)C(C)N (centres undefined)
Solution: 97 % of control

Problem: Quick one: T/C of N#CC(/C=C/c1ccco1)Nc1ccccc1C(N)=O (centres undefined) ?
Solution: 100 % of control

Problem: I have this molecule here, `CC(=O)Oc1ccc2c(c1)oc(=O)c1ccc(C)cc12` , and I need its recorded T/C.
Solution: 92 % of control

Problem: Name the reported T/C value associated with the molecule `COC(=O)c1c(Cl)c(Cl)c(Cl)c(Cl)c1C(=O)OC`
Solution: 95 % of control

Problem: So what's the measured T/C for this one? `CC(=O)Nc1ccc(N=Nc2ccccc2)cc1F`
Solution: 91 % of control

Problem: What T/C value was documented for this molecule, CC(=O)OCC1OC(OC(C)=O)C(OC(C)=O)C(OC(C)=O)C1OC(C)=O (centres undefined) ?
Solution: 102 % of control

====

Tested on: L1210 leukemia ip in BDF1 mice, survival T/C
Assay: NCI In Vivo Anticancer Drug Screen. Data for tumor model L1210 Leukemia (intraperitoneal) in B6D2F1 (BDF1) mice
Settings: endpoint: mean survival time; dose: 400.0 mg/kg/injection; schedule: Q01DX001 (ip); vehicle: saline with Tween-80; higher = longer survival
Inconclusive results and toxic doses are left out.
test-readout: T/C

Problem: For the compound shown here, `O=C(O)c1cccn1-c1ccccc1` , give the reported T/C.
Solution: 96 % of control

Problem: Item `CCOC(=O)C(CCCO)C(=O)OCC` has what recorded T/C?
Solution: 91 % of control

Problem: Returns the measured T/C for the input compound. Input: CC(C)(C)C1CCC2OC(C)(C(C)(C)C)CC(C(C)(C)C)C2C1 (centres undefined)
Solution: 95 % of control

Problem: What does the data say about its T/C? Entry: `Cc1cc(C)c(NC(=O)c2cc(C(=O)O)c(C(=O)Nc3c(C)cc(C)cc3C)cc2C(=O)O)c(C)c1`
Solution: 102 % of control

====

Test system: L1210 leukemia ip in BDF1 mice, survival T/C
Experiment: NCI In Vivo Anticancer Drug Screen. Data for tumor model L1210 Leukemia (intraperitoneal) in B6D2F1 (BDF1) mice
Details: endpoint: mean survival time; dose: 400.0 mg/kg/injection; schedule: Q01DX009 (ip); vehicle: saline with Tween-80; higher = longer survival
Inconclusive results and toxic doses are left out.
Could you please report measured T/C for the items listed next?

Problem: Bench note: what T/C did `Clc1ccc(-c2nnc(-c3cccc4ccccc34)o2)cc1Cl` show?
Solution: 86 % of control

Problem: Any idea what T/C was measured for `COc1ccc(C)cc1NC(=O)SCc1ccccc1` ?
Solution: 94 % of control

Problem: Need T/C of `COc1ccc([N+](=O)[O-])cc1C(F)(F)F` , thanks.
Solution: 93 % of control

Problem: Please report the recorded T/C for `CCOc1ccccc1NC(=O)c1cccc(F)c1` .
Solution: 101 % of control

Problem: Which T/C is reported for this compound? `NCCOS(=O)(=O)O`
Solution: 99 % of control

Problem: Fill blank: measured T/C of the compound CC(C)C1=CC23CCC4C(C)(C(=O)O)CCCC4(C)C2CC13 (stereo unspecified) is ____.
Solution: 91 % of control

Problem: Which value of T/C has been reported for `O=C(/C=C(/c1ccccc1)P(=O)(c1ccccc1)c1ccccc1)c1ccccc1` in the records?
Solution: 88 % of control

Problem: Can you share its T/C? I mean this compound: `O=C1OC(=O)c2ccc([N+](=O)[O-])c3c([N+](=O)[O-])ccc1c23`
Solution: 91 % of control

Problem: # input compound: `CCCCCCCCOc1ccc(C(=O)O)cc1` ; wanted: its T/C
Solution: 92 % of control

Problem: // returns reported T/C for input `CC(=O)Oc1ccc2c3c(cccc13)CC2`
Solution: 92 % of control

Problem: Which value of T/C has been reported for CC1(C)COC(C2CC(=O)c3ccccc3C2)=N1 (stereo unspecified) in the records?
Solution: 107 % of control

====

Test system: L1210 leukemia ip in BDF1 mice, survival T/C
Experiment: NCI In Vivo Anticancer Drug Screen. Data for tumor model L1210 Leukemia (intraperitoneal) in B6D2F1 (BDF1) mice
Conditions: endpoint: mean survival time; dose: 50.0 mg/kg/injection; schedule: Q04DX002 (ip); vehicle: saline; higher = longer survival
Toxic doses and inconclusive results are not listed.
Give measured T/C for each item. Keep answers brief.

Problem: What T/C appears in the records for this compound with L1210 leukemia ip in BDF1 mice, survival T/C? `CCN(CC)Cc1ccccc1COC(=O)c1cccc(C)c1`
Solution: 93 % of control

Problem: So what T/C did `N=C(N)SCc1ccc(Cl)cc1` get with L1210 leukemia ip in BDF1 mice, survival T/C?
Solution: 94 % of control

Problem: Give the reported T/C for `O=C(C[n+]1ccccc1)c1ccccc1` (system: L1210 leukemia ip in BDF1 mice, survival T/C).
Solution: 95 % of control

====

Tested on: L1210 leukemia ip in BDF1 mice, survival T/C
Test: NCI In Vivo Anticancer Drug Screen. Data for tumor model L1210 Leukemia (intraperitoneal) in B6D2F1 (BDF1) mice
Settings: endpoint: mean survival time; dose: 400.0 mg/kg/injection; schedule: Q04DX003 (ip); vehicle: Klucel (hydroxypropylcellulose) (HPC); higher = longer survival
Toxic doses and inconclusive results are not listed. Square brackets hold non-standard residues; d marks the D form. Peptide text beside a SMILES is read from it. * marks the point of attachment. ξ: configuration not given here. Cbz = O=C(OCc1ccccc1)*; ξNle = CCCCC(N)C(=O)O
test-readout: T/C

Problem: Quick one: T/C of `COc1ccc(Cl)cc1NC(=O)Nc1ccc(Nc2ccccc2)cc1` ?
Solution: 97 % of control

Problem: Look at this compound and give its reported T/C. `COc1cc(C=O)ccc1OC(=O)Nc1ccc([N+](=O)[O-])cc1Cl`
Solution: 105 % of control

Problem: Give the measured T/C of c1ccc2c(c1)NC(C1Nc3ccccc3S1)S2 (stereo not given) .
Solution: 90 % of control

Problem: Request the reported T/C associated with CCCCC(NC(=O)CNC(=O)CNC(=O)OCc1ccccc1)C(=O)O (stereo not drawn) (Cbz-Gly-Gly-[ξNle]-OH)
Solution: 96 % of control

Problem: Requested field: T/C. Item: `CCCCCCCCCCCCCCCCS(=O)(=O)c1ccc(NN)cc1`
Solution: 105 % of control

Problem: Consider the compound shown here: `Cc1nonc1C` What is its recorded T/C?
Solution: 106 % of control

Problem: What value of T/C has been recorded for this entry: `C/C(CC(O)(C(F)(F)F)C(F)(F)F)=N\N1CCCCCC1`
Solution: 94 % of control

Problem: Which T/C is listed for `C(=N\N1CCN(/N=C/c2ccccc2)C1c1ccccc1)/c1ccccc1` ?
Solution: 101 % of control

Problem: So what's the measured T/C for this one? `CCCCCCCCCCCCCCCC(=O)N(CC#N)CC#N`
Solution: 89 % of control

Problem: What value of measured T/C is listed for `NC(=O)Nc1cccc(C(=O)O)c1` ?
Solution: 96 % of control

====

Test system: L1210 leukemia ip in BDF1 mice, survival T/C
Assay: NCI In Vivo Anticancer Drug Screen. Data for tumor model L1210 Leukemia (intraperitoneal) in B6D2F1 (BDF1) mice
Settings: endpoint: mean survival time; dose: 400.0 mg/kg/injection; schedule: Q01DX001 (ip); vehicle: carboxymethylcellulose (CMC); higher = longer survival
Inconclusive results and toxic doses are left out.
Field: T/C. Provide a value for each of the molecules that follow.

Problem: For the record CC(Sc1ccc([N+](=O)[O-])cn1)C(=O)O (configuration not stated) , what value of T/C is listed for L1210 leukemia ip in BDF1 mice, survival T/C?
Solution: 109 % of control

Problem: Lookup: T/C / L1210 leukemia ip in BDF1 mice, survival T/C / C#CC1(O)CC[C@H]2[C@@H]3CCC4=CCCC[C@@H]4[C@H]3CC[C@@]21C (some centres not stated)
Solution: 91 % of control

Problem: Request - read-out T/C | tested on L1210 leukemia ip in BDF1 mice, survival T/C | molecule `NC(=O)C1(Nc2ccc(-c3ccc(Cl)cc3)cc2)CCCC1`
Solution: 87 % of control

Problem: State its T/C on L1210 leukemia ip in BDF1 mice, survival T/C: `COc1ccc2c(c1)CCC(=O)O2`
Solution: 100 % of control

Problem: Provide value of T/C for this record tested with L1210 leukemia ip in BDF1 mice, survival T/C: `Nc1nc(N)c2[nH]cnc2n1`
Solution: 97 % of control

Problem: Quick check: T/C on L1210 leukemia ip in BDF1 mice, survival T/C, item CC(C)C1c2ccccc2C(=O)C1C(N)=O (configuration not stated) ?
Solution: 93 % of control

Problem: Give the reported T/C for Cc1ccc(S(=O)(=O)C2CCCC2Cl)cc1 (configuration not stated) (system: L1210 leukemia ip in BDF1 mice, survival T/C).
Solution: 104 % of control

Problem: Tell me reported T/C for `Nc1cc(Cl)ccc1Nc1ccccc1` , tested with L1210 leukemia ip in BDF1 mice, survival T/C.
Solution: 101 % of control

Problem: Could you share what T/C was measured for `Nc1nc(N)c(N=Nc2ccc(S(=O)(=O)Nc3nccs3)cc2)cc1N=Nc1ccccc1` , tested on L1210 leukemia ip in BDF1 mice, survival T/C?
Solution: 105 % of control

Problem: Write down the reported T/C of `Cc1cccc2c(Br)cccc12` , test system: L1210 leukemia ip in BDF1 mice, survival T/C.
Solution: 93 % of control

Problem: # get_value(readout= T/C, system= L1210 leukemia ip in BDF1 mice, survival T/C) for `O=C(Nc1ccccc1)Nc1cccc(C(F)(F)F)c1`
Solution: 109 % of control

Problem: Query the reported T/C for L1210 leukemia ip in BDF1 mice, survival T/C; item: `CCCCCCCCCCCC(=O)Nc1ccc(SSc2ccc(NC(=O)CCCCCCCCCCC)cc2)cc1`
Solution: 101 % of control
